Entry source: PubChem BioAssay (NCATS)

Molecular target: DNA repair nuclease/redox regulator APEX1 (Homo sapiens)
Assay: qHTS Validation Assay for Inhibitors of the Human Apurinic/apyrimidinic Endonuclease 1 (APE1) (AID 1705;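 note: TAMRA fluorescence gain over two minutes as APE1 cuts a quenched THF abasic duplex; % is set by controls: 0 for no effect and ±100 for the full control effect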)
Conditions: purified APE1 endonuclease activity, fluorescence, titration; series mostly up to 57.1 µM
Excerpt: Assay Provider: David M. Wilson, III, National Institute on Aging, NIH Screening Center PI: Austin, C.P. Screening Center: NIH Chemical Genomics Center [NCGC] […] Three uL of enzyme were dispensed to 1536-well Greiner black solid bottom plates. […] The plates were immediately transferred into ViewLux High-throughput CCD imager (Perkin-Elmer) in order to measure the reaction progress in kinetic mode (three reads every 60 seconds) using 525 nm excitation and 598 nm emission fluorescence protocol. […]
Records with an inconclusive call do not appear. The source made the active and inactive calls. Calls come from the whole dose curve; as a rule, active = well fitted inhibition curve with a large enough effect; inconclusive = small, poorly fitted or top-dose-only effect; inactive = flat fitted curve, though single readings scatter.
metricName: outcome

1. Clc1cccc(N2CCNCC2)c1 = inactive
2. O=c1[nH]c2ccccc2n1CCCN1CCC(n2c(=O)[nH]c3cc(Cl)ccc32)CC1 = inactive
3. CCCC(C)(COC(N)=O)COC(=O)NC(C)C (stereo unspecified) = inactive
4. CC[N+](CC)(CC)CC = inactive
5. CCn1cc(C(=O)O)c(=O)c2ccc(C)nc21 = inactive
6. COC[C@H]1OC(=O)c2coc3c2[C@@]1(C)C1=C(C3=O)C2CCC(=O)[C@@]2(C)C[C@H]1OC(C)=O (stereo partly specified) = inactive
7. c1ccc2c(c1)OCC(C1=NCCN1)O2 (stereo unspecified) = inactive
8. NN=C(N)N = inactive
9. CC(CCc1ccccc1)NC(C)C(O)c1ccc(O)cc1 (stereo unspecified) = inactive
10. Fc1ccc(C(OCCN2CCN(CCCc3ccccc3)CC2)c2ccc(F)cc2)cc1 = inactive
11. CN1C[C@H](CNC(=O)OCc2ccccc2)C[C@@H]2c3cccc4c3c(cn4C)C[C@H]21 = inactive
12. NCC1(CC(=O)O)CCCCC1 = inactive
13. CNCCC(Oc1ccc(C(F)(F)F)cc1)c1ccccc1 (stereo unspecified) = inactive
14. CCCN1CCC[C@@H]2Cc3nc(N)ncc3C[C@H]21 = inactive
15. Nc1ccncc1 = inactive
16. c1ccc(C2CC2)c(OCC2=NCCN2)c1 = inactive

----------
System: N140
Experiment: qHTS profiling for inhibitors of Plasmodium falciparum proliferation (AID 504749); note: nearly all actives have a fitted effect of over 60% in size
Settings: P. falciparum in erythrocytes, SYBR Green DNA, 72 h; series mostly up to 28.7 µM
Procedure: NIH National Institute of Allergy and Infectious Diseases [NIAID] NIH Chemical Genomics Center [NCGC] […] Because mature erythrocytes lack DNA, only Plasmodium-derived DNA is detected. NCGC Assay Protocol Summary: The SYBR Green viability assay was adapted from a method described previously (Plouffe et al., 2008). […] The following morning, fluorescence intensity at 485(14) nm excitation and 535(25) nm emission wavelengths was measured on an EnVision (Perkin Elmer) plate reader. […]
Results filed as inconclusive are left out. Activity calls are given as the source filed them. The call rests on the fitted dose curve; in most records, active means well fitted inhibition curve with a large enough effect; inconclusive means small, poorly fitted or top-dose-only effect; inactive means flat fitted curve, though single readings scatter.
Labels: 1.0 for active, 0.0 for inactive

1) NCC(O)c1ccc(O)cc1 (stereo unspecified) = 0.0
2) CC(C)(C)NCC(O)c1cc(Cl)c(N)c(Cl)c1 (stereo unspecified) = 1.0
3) Nc1ccncc1 = 0.0
4) CN1C(=S)CN=C(c2ccccc2)c2cc(Cl)ccc21 = 0.0
5) OCCOc1ccccc1 = 0.0
6) COc1ccc(C(=O)c2c(C)n(CCN3CCOCC3)c3ccccc23)cc1 = 0.0
7) NCC1(CC(=O)O)CCCCC1 = 0.0
8) Clc1ccc(COC(Cn2ccnc2)c2ccc(Cl)cc2Cl)cc1 (stereo unspecified) = 1.0
9) CC(C)CC(N(C)C)C1(c2ccc(Cl)cc2)CCC1 (stereo unspecified) = 0.0
10) O=C(NC(O)C(Cl)(Cl)Cl)NC(O)C(Cl)(Cl)Cl (stereo unspecified) = 0.0
11) NCCc1cc(O)c(O)cc1O = 0.0
12) Oc1ccccc1-c1ccccc1 = 0.0
13) NN=C(N)N = 0.0
14) CC(C)=CC1C(C(=O)OCc2cccc(Oc3ccccc3)c2)C1(C)C (stereo unspecified) = 0.0
15) CN(C)CCc1ccc(O)cc1 = 0.0
16) O=P1(NCCCl)OCCCN1CCCl (stereo unspecified) = 0.0

----------
Target: Nuclear receptor subfamily 1 group I member 2 (Rattus norvegicus)
Assay: qHTS assay for small molecule activators of the rat pregnane X receptor (rPXR) signaling pathway (AID 651751); note: 0% is about no effect
Details: rPXR reporter cells, luciferase (One-Glo), 24 h
metricName: max response (%)

1) Nc1ccncc1 = -1.96
2) O=c1oc2ccccc2c(O)c1C(CC(O)c1ccc(-c2ccc(Br)cc2)cc1)c1ccccc1 (stereo not given) = -13.3
3) NCC(O)c1ccc(O)cc1 (stereo not given) = 2.53
4) CC(C)(C)CC(C)(C)c1ccc(O)cc1 = -11.1
5) Oc1cc(Cl)ccc1Oc1ccc(Cl)cc1Cl = -4.24
6) C[C@H]1O[C@@H](O[C@H]2[C@@H](O)C[C@H](O[C@H]3[C@@H](O)C[C@H](O[C@H]4CC[C@@]5(C)[C@H](CC[C@@H]6[C@@H]5CC[C@]5(C)[C@@H](C7=CC(=O)OC7)CC[C@]65O)C4)O[C@@H]3C)O[C@@H]2C)C[C@H](O)[C@@H]1O = -1.87
7) C[C@@H]1O[C@@H](O[C@H]2C[C@@H](O)[C@]3(CO)[C@H]4[C@H](O)C[C@]5(C)[C@@H](C6=CC(=O)OC6)CC[C@]5(O)[C@@H]4CC[C@]3(O)C2)[C@H](O)[C@H](O)[C@H]1O = 0.133
8) C=C(C)[C@H]1Cc2c(ccc3c2O[C@@H]2COc4cc(OC)c(OC)cc4[C@@H]2C3=O)O1 = -14.4
9) CNCC(O)c1ccc(O)cc1 (stereo not given) = -0.194
10) C[C@]12CCC(=O)C(O)=C1CC[C@@H]1[C@@H]2CC[C@]2(C)C(=O)CC[C@@H]12 = 2.3

----------
Assay: Quantitative High-Throughput drug screen in 47 multiple myeloma cell lines against the NCATS MIPE library collection: PE2_PLB cell viability assay (AID 1919869); note: nearly all actives have a fitted effect of over 35% in size
Settings: PE2_PLB myeloma cells viability, ATP luminescence, 48 h; series mostly up to 45.8 µM
Records with an inconclusive call do not appear. Calls of active or inactive are those of the source. Calls come from the whole dose curve; as a rule, active = well fitted cell-killing curve with a large enough effect; inconclusive = small, poorly fitted or top-dose-only effect, or effect the other way; inactive = no such curve, though single readings can be large or run the other way.
Labels: active, inactive

1. CN(C)CCc1ccc(O)cc1 = active
2. CNC(=O)N1N=C(c2ccc(N)cc2)c2cc3c(cc2CC1C)OCO3 (stereo not drawn) = active
3. Fc1ccc(C(OCCN2CCN(CCCc3ccccc3)CC2)c2ccc(F)cc2)cc1 = active
4. O=C1CC[C@@]2(O)[C@H]3Cc4ccc(O)c5c4[C@@]2(CCN3CC2CC2)[C@H]1O5 = inactive
5. CC(O)(CS(=O)(=O)c1ccc(F)cc1)C(=O)Nc1ccc(C#N)c(C(F)(F)F)c1 (stereo not drawn) = active
6. COc1ccc(C(=O)c2c(C)n(CCN3CCOCC3)c3ccccc23)cc1 = inactive
7. CNCC(O)c1ccc(O)cc1 (stereo not drawn) = inactive
8. Cn1c(CCCC(=O)O)nc2cc(N(CCCl)CCCl)ccc21 = active

----------
Test: qHTS profiling for inhibitors of Plasmodium falciparum (DD2) proliferation (AID 743323)
Details: lower = more inhibition; at 28.7 µM (top of the series)
metricName: activity, percent of control (%)

1) CCCCC/C=C\C/C=C\C/C=C\C/C=C\CCCC(=O)NC1CC1 = 5.26
2) CN(C)CCN(C)CCc1ccc(Cl)c(Cl)c1 = 25
3) C[C@]12CCC(=O)C(O)=C1CC[C@@H]1[C@@H]2CC[C@]2(C)C(=O)CC[C@@H]12 = 71.8
4) Cc1cc(SCc2sc(-c3ccc(C(F)(F)F)c(F)c3)nc2C)ccc1OCC(=O)O = 90.7
5) Cn1c(CCCC(=O)O)nc2cc(N(CCCl)CCCl)ccc21 = 105
6) COc1ccc(C(=O)c2c(C)n(CCN3CCOCC3)c3ccccc23)cc1 = 102
7) C=C(C)[C@H]1Cc2c(ccc3c2O[C@@H]2COc4cc(OC)c(OC)cc4[C@@H]2C3=O)O1 = 97.6
8) Cc1sc2c(c1C)C(c1ccc(Cl)cc1)=N[C@@H](CC(=O)OC(C)(C)C)c1nnc(C)n1-2 = 14.6
9) COC1(CS(=O)c2ccccc2)CCN(CCc2c[nH]c3ccc(F)cc23)CC1 (configuration not stated) = 44.5
10) CNC(=O)c1ccc(N2C(=S)N(c3ccc(C#N)c(C(F)(F)F)c3)C(=O)C23CCC3)cc1F = 76.1
11) O=C(O)C(=O)c1cn(Cc2ccccc2)c2ccc(-c3ccc(OC(F)(F)F)cc3)cc12 = 90.7
12) COC[C@H]1OC(=O)c2coc3c2[C@@]1(C)C1=C(C3=O)C2CCC(=O)[C@@]2(C)C[C@H]1OC(C)=O (some centres not stated) = 57.9
